# Tested on: Saccharomyces cerevisiae BY4741 SeMeCo community
# protocol-summary: z-score of subpopulation abundance vs DMSO median, subpopulation auxotrophic for LUM; higher = larger share of this subpopulation than in DMSO controls
# stated-conditions: 10 µM; 24 h; SM minimal medium; subpopulation (auxotrophy): LUM
Counter-ions that a name gives are not always drawn.
Reported z-score of subpopulation abundance maps to class as: bottom = under 0.1, middle = from 0.1 up to 0.7, top = 0.7 and over

Assign a bin to NC(=N\CCCCCC/N=C(N)/N=C(\N)Nc1ccc(Cl)cc1)/N=C(\N)Nc1ccc(Cl)cc1 [Chlorhexidine diacetate]
top

Another: CC1(C)S[C@@H]2[C@H](NC(=O)Cc3ccccc3)C(=O)N2[C@H]1C(=O)O [Benzathine penicilline]
bottom

Another: CO/N=C(\C(=O)N[C@@H]1C(=O)N2C(C(=O)O)=C(Cn3ccc(=N)n3CCO)CS[C@H]12)c1csc(N)n1 [Cefoselis Sulfate]
bottom

Another: Cc1c(S(=O)(=O)O)oc2c1C(=O)C(=O)c1c-2ccc2c1CCCC2(C)C [Tanshinone IIA sulfonate (sodium)]
top

Another: CCCc1nn(C)c2c(=O)[nH]c(-c3cc(S(=O)(=O)N4CCN(C)CC4)ccc3OCC)nc12 [Sildenafil Citrate]
bottom

Another: CC1(C)S[C@@H]2[C@H](NC(=O)[C@H](NC(=O)N3CCN(S(C)(=O)=O)C3=O)c3ccccc3)C(=O)N2[C@H]1C(=O)O [Mezlocillin Sodium]
bottom

Another: C[C@H]1c2cccc(O)c2C(O)=C2C(=O)[C@]3(O)C(O)=C(C(N)=O)C(=O)[C@@H](N(C)C)[C@@H]3[C@@H](O)[C@@H]21 [Doxycycline monohydrate]
middle

Another: C/C=C\c1ccc(O)c(OC)c1 [Isoeugenol]
middle

Another: O=C(O)c1cn(-c2ccc(F)cc2)c2cc(N3CCNCC3)c(F)cc2c1=O [Sarafloxacin HCl]
middle

Another: CO[C@@H]1[C@@H](OC(N)=O)[C@@H](O)[C@H](Oc2ccc3c(O)c(NC(=O)c4ccc(O)c(CC=C(C)C)c4)c(=O)oc3c2C)OC1(C)C [Novobiocin Sodium]
top

Another: CONC(=O)Nc1ccc(-c2sc3c(c2CN(C)C)c(=O)n(-c2ccc(OC)nn2)c(=O)n3Cc2c(F)cccc2F)cc1 [Relugolix]
middle

Another: C[C@]12CC[C@@H]3c4ccc(O)cc4CC[C@H]3[C@@H]1CC[C@@H]2OC(=O)CCC1CCCC1 [Estradiol Cypionate]
middle

====

# System: Saccharomyces cerevisiae BY4741 SeMeCo community
# protocol-summary: z-score of subpopulation abundance vs DMSO median, subpopulation auxotrophic for HLU; higher = larger share of this subpopulation than in DMSO controls
# stated-conditions: 10 µM; 24 h; SM minimal medium; subpopulation (auxotrophy): HLU
Where a name gives a salt, the structure may show the parent alone.
experimental-endpoint: z-score of subpopulation abundance
Keep the answer to the number alone.

Could you tell me which z-score of subpopulation abundance is on file for CC(=O)OCC1=C(C(=O)O)N2C(=O)C(NC(=O)CSC(=NC(C)C)NC(C)C)C2SC1 (stereo not given) ?
-1.21

Another: CO/N=C(\C(=O)N[C@@H]1C(=O)N2C(C(=O)[O-])=C(C[N+]3(C)CCCC3)CS[C@H]12)c1csc(N)n1 [Cefepime Dihydrochloride Monohydrate]
0.65

Another: CC[C@H](C)C(=O)O[C@H]1C[C@H](O)C=C2C=C[C@H](C)[C@H](CC[C@@H](O)C[C@@H](O)CC(=O)O)[C@H]21 [Pravastatin sodium]
-0.65

Another: `CC/C(=C(/CC)c1ccc(O)cc1)c1ccc(O)cc1`
-1.06

Another: CN(C)CCC=C1c2ccccc2CCc2ccccc21 [Amitriptyline HCl]
-1.03

Another: CCOC(=O)C1=C(C)NC(C)=C(C(=O)OC)C1c1cccc([N+](=O)[O-])c1 (stereo not given)
-0.48

Another: CCCCc1oc2ccc(NS(C)(=O)=O)cc2c1C(=O)c1ccc(OCCCN(CCCC)CCCC)cc1 [Dronedarone HCl]
2.17

Another: `Cc1cc(-n2c(=O)[nH]c(=O)n(C)c2=O)ccc1Oc1ccc(SC(F)(F)F)cc1`
0

Another: `O=C1NC(=O)C(c2ccccc2)(c2ccccc2)N1`
-0.45

Another: `O=C(CCCN1CCN(c2ccccn2)CC1)c1ccc(F)cc1`
-0.03

Another: COc1ccc2c3c1O[C@H]1C[C@@H](O)C=C[C@@]31CCN(C)C2 [Galanthamine]
1.67

Another: `CCOC(=O)c1ccc(O)cc1`
-0.25

Another: O=C1Cc2cc(CCN3CCN(c4nsc5ccccc45)CC3)c(Cl)cc2N1 [Ziprasidone HCl]
0.15

Another: CN(C)CCCN1c2ccccc2Sc2ccc(Cl)cc21 [Chlorpromazine HCl]
-0.85

Another: O=C(c1ccccc1)c1ccc2n1CCC2C(=O)O (stereo not given)
-0.97

Another: `O=C(CCCN1CCC(O)(c2ccc(Cl)cc2)CC1)c1ccc(F)cc1`
0.13

Another: `CCCCCCCCc1ccc(CCC(N)(CO)CO)cc1`
-1.65

Another: CCC[C@@H]1C[C@@H](C(=O)N[C@@H]([C@H]2O[C@H](SC)[C@H](OP(=O)(O)O)[C@@H](O)[C@H]2O)[C@H](C)Cl)N(C)C1 [Clindamycin Phosphate]
-0.85

Another: Cc1ccccc1OCC(O)CO (stereo not given)
-0.38

Another: Fc1ccc(C(c2ccc(F)cc2)N2CCN(C/C=C/c3ccccc3)CC2)cc1 [Flunarizine 2HCl]
0.59

Another: `COc1cccc2c1C(=O)c1c(O)c3c(c(O)c1C2=O)C[C@@](O)(C(=O)CO)C[C@@H]3O[C@H]1C[C@H](N)[C@H](O[C@@H]2CCCCO2)[C@H](C)O1`
2.71

Another: NC(=O)c1cnccn1 [Pyrazinamide]
-0.7

Another: O=C1[C@H]2CCCC[C@H]2C(=O)N1CCCCN1CCN(c2nsc3ccccc23)CC1 [Perospirone hydrochloride]
0.2

Another: `O=C1CCc2cc(OCCCCc3nnnn3C3CCCCC3)ccc2N1`
-0.44

Another: `CO/N=C1\C[C@]2(C[C@@H]3C[C@@H](C/C=C(\C)C[C@@H](C)/C=C/C=C4\CO[C@@H]5[C@H](O)C(C)=C[C@@H](C(=O)O3)[C@]45O)O2)O[C@H](/C(C)=C/C(C)C)[C@H]1C`
1.24

Another: CC[C@H]1OC(=O)[C@H](C)[C@@H](O[C@H]2C[C@@](C)(OC)[C@@H](O)[C@H](C)O2)[C@H](C)[C@@H](O[C@@H]2O[C@H](C)C[C@H](N(C)C)[C@H]2O)[C@](C)(O)C[C@@H](C)CN(C)[C@H](C)[C@@H](O)[C@]1(C)O [Azithromycin Dihydrate]
-0.73

Another: Cc1[nH]cnc1CN1CCc2c(c3ccccc3n2C)C1=O [Alosetron Hydrochloride]
-0.13

Another: CO/N=C(\C(=O)N[C@@H]1C(=O)N2C(C(=O)[O-])=C(C[n+]3cccc4c3CCC4)CS[C@H]12)c1csc(N)n1 [Cefpirome sulfate]
-0.14

Another: CN(C)c1cc(NC(=O)CNC(C)(C)C)c(O)c2c1CC1CC3C(N(C)C)C(=O)C(C(N)=O)=C(O)C3(O)C(=O)C1=C2O (stereo not given)
-0.27

Another: O=C1C(=O)c2ccccc2C(O)=C1C1CCC(c2ccc(Cl)cc2)CC1 (stereo not given)
1.94
